- Tested on: hypoxia-inducible endogenous VEGF expression
- test.name: Hypoxia-inducible endogenous VEGF expression ELISA in HeLa cells, dose-response (EC50, Table 3)
- test.context: Homo sapiens, read-out: ELISA EC50 μM
Record form. Attribute: EC50. Fill in for each entry.

stdin: Report its EC50 with hypoxia-inducible endogenous VEGF expression as the test system: COCCN(C)CCCOc1ccc(C2c3[nH]c4ccc(Cl)cc4c3CCN2C(=O)Oc2ccc(F)cc2)cc1 (stereo not shown) [Compound 992]
stdout: 0.04 to 0.2 µM

stdin: Output reported EC50 of the compound O=C(Oc1ccc(Cl)cc1)N1CCc2c([nH]c3ccc(Cl)cc23)C1c1ccc(OCCCN2CCCC2)cc1 (stereo not shown) [Compound 429] on hypoxia-inducible endogenous VEGF expression.
stdout: < 0.008 µM

stdin: Answer briefly: EC50 recorded on hypoxia-inducible endogenous VEGF expression for O=C(Oc1ccc(F)cc1)N1CCc2c([nH]c3ccc(Cl)cc23)C1c1ccc(OCCCCCCNCCO)cc1 (stereo not shown) [Compound 772]
stdout: < 0.008 µM

stdin: Specify the recorded EC50 for CCN(CC)CCCOc1ccc(C2c3[nH]c4ccc(Cl)cc4c3CCN2C(=O)Oc2ccc(Cl)cc2)cc1 (stereo not shown) [Compound 946] , system: hypoxia-inducible endogenous VEGF expression.
stdout: 0.008 to 0.04 µM

stdin: Look up hypoxia-inducible endogenous VEGF expression data: EC50 of O=C(Oc1ccc(Cl)cc1)N1CCc2c([nH]c3ccc(Cl)cc23)C1c1ccc(OCCCCCCN2CCOCC2)cc1 (stereo not shown) [Compound 786] , then report it.
stdout: < 0.008 µM

stdin: Check hypoxia-inducible endogenous VEGF expression data and give EC50 for O=C(Oc1ccc(F)cc1)N1CCc2c([nH]c3ccc(Cl)cc23)C1c1ccc(OCCCCCCN2CCCC2)cc1 (stereo not shown) [Compound 773] .
stdout: < 0.008 µM

stdin: State recorded EC50 with hypoxia-inducible endogenous VEGF expression, entry CN1CCN(CCCCOc2ccc(C3c4[nH]c5ccc(Cl)cc5c4CCN3C(=O)Oc3ccc(F)cc3)cc2)CC1 (stereo not shown) [Compound 740] , no comment.
stdout: 0.04 to 0.2 µM
